These data points were gathered from paper PMC3873039.

Test system: KG1a
Experiment: NucView caspase 3 activity assay by flow cytometry
Type: cell-based, human
Conditions: Homo sapiens, KG-1a, 24 h, read-out: AP50 (50% induction of apoptosis), Caspase 3 activity assay (C3)
# key: entry, value: EC50

* O=C(O)c1cc(O)c2c(c1)C(=O)c1cccc(O)c1C2=O | > 250 µM
* O=c1cc(-c2ccccc2)oc2cc(O)cc(O)c12 | > 250 µM
* Cc1cc(O)c2c(c1)C(=O)c1cc(O)cc(O)c1C2=O | > 10 µM
* O=C1c2cccc(O)c2C(=O)c2c(O)cc(CO)cc21 | > 250 µM
* O=c1cc(-c2ccc(O)cc2)oc2cc(O)cc(O)c12 | 89 µM
* O=c1c(O)c(-c2ccc(O)c(O)c2)oc2cc(O)cc(O)c12 | > 50 µM

Moving on to another molecule below.
# input Give the measured EC50 of C(=C\c1ccccc1)/c1ccccc1 [Trans-Stilbene, Trans-stilbene] .
# output > 500 µM
